Data origin: paper PMC9482650

molecular target: MAGI1_3, Q96QZ7; experiment: holdup assay; parameters: key: below the threshold = too weak to quantify, mostly under pKd 3.1 to 4; settings: plain residues with an end cap or a label only (N-terminal biotin on a linker: ttds)
Sequence (Q96QZ7 638-725): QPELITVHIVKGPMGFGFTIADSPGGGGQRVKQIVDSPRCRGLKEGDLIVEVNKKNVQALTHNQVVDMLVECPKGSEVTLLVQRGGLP
readout: pKd
Answer field: number only, no words.

Data request: Data request, read-out pKd, for SGGKRKETLV [NET1, Q7Z628]
Data returned: 4.91

Data request: Need pKd, item PPRQRSETQV [HPV82-E6, Q9IR59]
Data returned: 4.28

Data request: Name the reported pKd value associated with the binder KLVIKTETTV [RASSF6, Q6ZTQ3]
Data returned: 4.32
